Reference source for all entries: PubChem BioAssay

Readings of z-score for the listed molecules
assay: inhibitors of hydroxyurea-induced Chk1 phosphorylation, primary screen, imaging, HeLa, phospho-Chk1 antibody, percent positive cells (AID 1186); conditions: hydroxyurea-induced phospho-Chk1 immunofluorescence imaging, higher = more signal
Quick one: just the number, no unit, thanks!

Reference set, count: 3
molecule	z-score
COc1ccc(-c2cc3c(c(-c4ccccc4)n2)[Si](C(C)C)(C(C)C)O[C@H]3c2ccccc2)cn1	-0.317
Cc1ccc(S[C@]2(C(=O)NCCCN(C)C)CC(=O)N(C3CCCCC3)[C@@H]2c2ccc(CO)cc2I)cc1	-0.212
COC(=O)[C@@]1(Cc2ccccc2N=[N+]=[N-])N=C(c2ccc(OCCCO)cc2)O[C@H]1c1ccccc1CN=[N+]=[N-]	-0.352

Now let's try a different one.
Consider the molecule CC(C)N1CC=CC23O[C@@H]4/C=C\CCCOC(=O)C4[C@H]2C(=O)N(CCO)[C@@H]3C1=O (some centres undefined) and give its recorded z-score. -1.32

* * *

experiment: PSAC antagonists in infected red cells, primary screen, cell-based, P. falciparum Indochina, OD700, 18 h (AID 1157); conditions: P. falciparum Indochina infected erythrocytes, osmotic lysis OD700, 18 h; higher = more signal, called active from +8 up or from −8 down
Cut-off -2 on z-score, inclusive. At or above means yes; below means no.

Is it the case that `CN(C)CCCC[C@@H]1NC(=O)[C@@H]2C[C@H](C(=O)NCCCCCNC(=O)CS)[C@H](c3ccc(O)cc3)N2C1=O` has z-score reaching or exceeding -2? no

Is it the case that `CCCCO[C@H]1C[C@H]2C(Br)=C[C@@]1(CO)C(=O)[C@]21CO1` has z-score reaching or exceeding -2? no

Is it the case that `CO[C@@H]1COC(=O)[C@H](COCc2ccccc2)NC(=O)CC=C[C@@H](C)[C@H](OC)COC(=O)[C@H](COCc2ccccc2)NC(=O)CC=C[C@H]1C` has z-score reaching or exceeding -2? yes

Is it the case that `NC(=O)[C@H]1[C@@H]2C(=O)O[C@@H](c3ccccc3)[C@@H](c3ccccc3)N2[C@@H](c2ccc(O)cc2)[C@]12C(=O)Nc1ccc(C#CCCO)cc12` has z-score reaching or exceeding -2? yes

Is it the case that `C=CC[C@@]12N=C(c3ccc(OCCCO)cc3)O[C@@H]1c1ccccc1CN(Cc1ccccc1)C2=O` has z-score reaching or exceeding -2? yes

Is it the case that `CCN1C(C)=C(C(=O)OC)[C@@H](c2ccccc2)N2C(=O)[C@](O)(C(=O)OC)[C@@H](c3ccccc3)C(C(=O)c3ccccc3)=C12` has z-score reaching or exceeding -2? yes

Is it the case that `COc1cc(CO)cc(I)c1O[C@H]1C=C(C(=O)NCCO)C[C@@H](N(CC2CCCCC2)C(=O)c2cc3ccccc3oc2=O)[C@@H]1O` has z-score reaching or exceeding -2? yes

Is it the case that `CCN1C(C)=C(C(=O)OC)[C@@H](c2ccccc2)N2C(=O)[C@@]3(C(=O)OC)O[C@@]12[C@@H]1C(=O)N(C)C(=O)[C@@H]13` has z-score reaching or exceeding -2? yes

* * *

Readings of composite z-score for the listed molecules
assay: binders of probe aFST on microarray, primary screen, stem cell growth factor project, biochemical, small-molecule microarray, fluorescence 635/667 (AID 1086); conditions: higher = more signal;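 further: score merges 667 nm fluorescence with signal-to-noise of each printed compound spot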
Quick one: just the number, no unit, thanks!

molecule	composite z-score
COC(=O)C[C@H]1O[C@]2(C(=O)N(Cc3ccccc3)c3ccc(I)cc32)[C@@H](C)[C@@H]1[Si](C)(C)c1ccc(OC)cc1	-0.145
C[N+](C)(C)CCCCNC(=O)[C@H]1C[C@H]2C(=O)NCC(=O)N2[C@H]1c1cccc(OCCO)c1	0.533

Consider the molecule `C=CCNC(=O)[C@H]1[C@@H]2C(=O)O[C@@H](c3ccccc3)[C@@H](c3ccccc3)N2[C@@H](c2ccc(O)cc2)[C@]12C(=O)Nc1ccc(C#CCNC(N)=O)cc12` and give its recorded composite z-score. -0.526

Consider the molecule `CC(C)CN1C(=O)[C@@]2(Cc3ccccc31)c1ccccc1C(=O)N(C1CCCCC1)[C@H]2c1ccc(CO)cc1` and give its recorded composite z-score. -0.382

Consider the molecule `CO[C@@H]1COC(=O)CC=C[C@@H](C)[C@H](OC)COC(=O)CC=C[C@H]1C` and give its recorded composite z-score. 0.169
